# MEASUREMENT_TARGET: Ba/F3 De119/T790M/C797S EGFR triple mutant cell line (Homo sapiens, UniProt P00533, T790M/C797S, cells depend on it, form not given)
# Sequence (P00533 with tags, fused parts or gaps DEL746-750/T790M/C797S, form open): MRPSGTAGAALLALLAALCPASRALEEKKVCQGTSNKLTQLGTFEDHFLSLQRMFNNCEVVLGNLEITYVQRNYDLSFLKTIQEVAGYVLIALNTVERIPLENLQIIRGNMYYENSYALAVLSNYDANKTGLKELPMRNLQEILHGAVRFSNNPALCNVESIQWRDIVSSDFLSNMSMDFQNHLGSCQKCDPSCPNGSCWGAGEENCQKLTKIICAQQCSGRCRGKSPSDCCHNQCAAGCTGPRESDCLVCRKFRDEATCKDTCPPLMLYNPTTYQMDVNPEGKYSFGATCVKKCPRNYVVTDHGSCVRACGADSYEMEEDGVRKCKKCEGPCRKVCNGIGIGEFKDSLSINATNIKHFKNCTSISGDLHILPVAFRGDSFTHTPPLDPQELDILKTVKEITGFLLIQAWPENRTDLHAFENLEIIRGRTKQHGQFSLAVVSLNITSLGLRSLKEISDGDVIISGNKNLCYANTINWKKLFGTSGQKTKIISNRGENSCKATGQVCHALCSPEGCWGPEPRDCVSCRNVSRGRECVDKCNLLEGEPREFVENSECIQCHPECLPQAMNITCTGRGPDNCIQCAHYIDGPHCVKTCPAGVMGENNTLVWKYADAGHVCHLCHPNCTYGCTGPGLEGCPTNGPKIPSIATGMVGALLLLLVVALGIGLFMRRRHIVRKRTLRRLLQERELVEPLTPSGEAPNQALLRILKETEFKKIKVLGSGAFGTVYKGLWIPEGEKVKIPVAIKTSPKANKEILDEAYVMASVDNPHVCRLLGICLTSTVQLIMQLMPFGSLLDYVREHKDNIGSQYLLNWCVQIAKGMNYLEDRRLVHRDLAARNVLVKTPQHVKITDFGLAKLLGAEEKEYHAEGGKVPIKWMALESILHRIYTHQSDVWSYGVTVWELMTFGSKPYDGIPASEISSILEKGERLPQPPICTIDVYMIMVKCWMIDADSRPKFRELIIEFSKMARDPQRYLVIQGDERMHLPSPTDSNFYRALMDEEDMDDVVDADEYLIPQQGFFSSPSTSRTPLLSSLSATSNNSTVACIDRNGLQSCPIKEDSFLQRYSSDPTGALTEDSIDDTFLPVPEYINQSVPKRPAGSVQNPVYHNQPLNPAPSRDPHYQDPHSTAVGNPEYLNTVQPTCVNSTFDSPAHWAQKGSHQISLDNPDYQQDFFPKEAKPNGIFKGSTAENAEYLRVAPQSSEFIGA
# TEST_METHOD_NOTES: Cell proliferation inhibition experiment (CellTiter-Glo), Ba/F3 De119/T790M/C797S
# Format: cell-based
# STATED_CONDITIONS: Ba/F3 Del19/T790M/C797S EGFR triple mutant cells, 72 hours, Cell Titer-Glo; read-out: Ba/F3 (Del19/T790M/C797S) IC50
ENDPOINT: GI50

molecule="COc1cc(N2CCC(N3CCO[C@H](C)C3)CC2)c(-c2cnn(C)c2)cc1Nc1ncc(Br)c(Nc2ccc3nccnc3c2P(C)(C)=O)n1 [compound 163]" observed_result="0.62 nM"
molecule="COc1cc(N2CCOCC2)c(C#N)cc1Nc1ncc(Br)c(Nc2ccc3nccnc3c2P(C)(C)=O)n1 [compound 59]" observed_result="26.2 nM"
molecule="COc1cc(N2CCNCC2)c(-c2cnn(C)c2)cc1Nc1ncc(Br)c(Nc2ccc3nccnc3c2P(C)(C)=O)n1 [compound 117]" observed_result="41 nM"
molecule="CN(C)c1c(-c2cnn(C)c2)cc(Nc2ncc(Br)c(Nc3ccc4nccnc4c3P(C)(C)=O)n2)c2c1CCO2 [compound 29]" observed_result="1.29 nM"
molecule="Cn1cc(-c2cc(Nc3ncc(Br)c(Nc4ccc5nccnc5c4P(C)(C)=O)n3)c3c(c2)OCO3)cn1 [Compound 82]" observed_result="7.85 nM"
molecule="COCCN(C)c1cc(OC)c(Nc2ncc(Br)c(Nc3ccc4nccnc4c3P(C)(C)=O)n2)cc1-c1cnn(C)c1 [compound 28]" observed_result="4.73 nM"
molecule="COc1cc(N2CCOCC2)c(-n2cccn2)cc1Nc1ncc(Br)c(Nc2ccc3nccnc3c2P(C)(C)=O)n1 [compound 61]" observed_result="312 nM"

====

# MEASUREMENT_TARGET: L858R/T790M/C797S triple mutant EGFR (Homo sapiens, UniProt P00533, C797S/L858R/T790M)
# Construct: purchased Signalchem
# Sequence (P00533 25-1210 T790M/C797S/L858R): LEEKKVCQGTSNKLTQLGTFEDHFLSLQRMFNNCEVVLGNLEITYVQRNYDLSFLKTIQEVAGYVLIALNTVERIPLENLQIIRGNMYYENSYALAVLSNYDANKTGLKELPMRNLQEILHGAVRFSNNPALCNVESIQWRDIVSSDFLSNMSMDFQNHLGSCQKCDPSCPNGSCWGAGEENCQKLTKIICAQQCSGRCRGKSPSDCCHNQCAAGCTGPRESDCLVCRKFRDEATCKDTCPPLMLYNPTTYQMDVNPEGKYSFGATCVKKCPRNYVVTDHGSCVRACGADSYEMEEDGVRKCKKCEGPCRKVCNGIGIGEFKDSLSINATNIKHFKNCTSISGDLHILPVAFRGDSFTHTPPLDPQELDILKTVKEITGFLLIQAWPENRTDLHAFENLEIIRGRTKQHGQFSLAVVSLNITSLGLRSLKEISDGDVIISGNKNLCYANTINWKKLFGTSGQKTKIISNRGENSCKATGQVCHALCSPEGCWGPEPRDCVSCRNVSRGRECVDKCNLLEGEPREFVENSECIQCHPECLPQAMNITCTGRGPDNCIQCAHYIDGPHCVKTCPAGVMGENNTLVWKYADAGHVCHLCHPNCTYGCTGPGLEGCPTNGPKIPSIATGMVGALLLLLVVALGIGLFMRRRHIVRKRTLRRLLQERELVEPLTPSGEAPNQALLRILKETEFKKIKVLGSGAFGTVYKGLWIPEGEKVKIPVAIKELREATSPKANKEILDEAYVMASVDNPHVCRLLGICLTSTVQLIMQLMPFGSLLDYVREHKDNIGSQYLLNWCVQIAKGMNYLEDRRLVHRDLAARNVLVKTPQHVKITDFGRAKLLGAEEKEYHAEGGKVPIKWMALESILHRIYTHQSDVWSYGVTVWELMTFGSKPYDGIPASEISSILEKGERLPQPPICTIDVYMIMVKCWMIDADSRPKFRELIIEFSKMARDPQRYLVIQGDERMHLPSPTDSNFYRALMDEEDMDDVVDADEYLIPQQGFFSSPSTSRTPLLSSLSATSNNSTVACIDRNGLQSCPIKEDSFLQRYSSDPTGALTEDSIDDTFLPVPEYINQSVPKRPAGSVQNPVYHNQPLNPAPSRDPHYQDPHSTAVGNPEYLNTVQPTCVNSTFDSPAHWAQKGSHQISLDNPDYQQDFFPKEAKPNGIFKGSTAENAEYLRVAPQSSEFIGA
# TEST_METHOD_NOTES: Enzymology experiment in vitro (HTRF/FRET kinase activity), L858R/T790M/C797S triple mutant EGFR
# Format: biochemical
# STATED_CONDITIONS: HTRF KinEASE-TK, read-out: EGFR (L858R/T790M/C797S) IC50
// assign yes (1) if IC50 falls strictly below 0.3 nM, else no (0) (ties count as no (0))

molecule=Cn1cc(-c2cc(Nc3ncc(Br)c(Nc4ccc5nccnc5c4P(C)(C)=O)n3)c3c(c2)OCO3)cn1 class="yes (1)"
molecule="COc1cc(N2CCC(N(C)C)C2)c(-c2cnn(C)c2)cc1Nc1ncc(Br)c(Nc2ccc3nccnc3c2P(C)(C)=O)n1 (stereo not drawn)" class="yes (1)"
molecule=COc1cc(N2CCC3(CC2)CCN(C(C)C)CC3)c(-c2cnn(C)c2)cc1Nc1ncc(Br)c(Nc2ccc3nccnc3c2P(C)(C)=O)n1 class="no (0)"
molecule="COc1cc(N2CCN3CCOCC3C2)c(-c2cnn(C)c2)cc1Nc1ncc(Br)c(Nc2ccc3nccnc3c2P(C)(C)=O)n1 (stereo not drawn)" class="no (0)"
molecule=CN1CCC2(CC1)CCN(c1nc(OCC(F)(F)F)c(Nc3ncc(Br)c(Nc4ccc5nccnc5c4P(C)(C)=O)n3)cc1-c1cnn(C)c1)CC2 class="no (0)"
molecule=COc1cc(N2CCC(OCCN(C)C)CC2)c(-c2cnn(C)c2)cc1Nc1ncc(Br)c(Nc2ccc3nccnc3c2P(C)(C)=O)n1 class="yes (1)"
